Sourced from patent US8815857B2

# protocol-description: Assessment of solubility: HT solubility in pION buffer, UV spectrophotometry
# condition-description: pION system solution buffer, pH 4.5, pH 4.5, aqueous buffer, kinetic from dmso stock, Solubility (pH 4.5), pH 4.5 buffer, 16-19 h incubation, 1.0% DMSO
endpoint: solubility (µg/mL)
Could you give me the number in µg/mL? Just the number is fine.

Reference set, count: 3
compound=Cc1cccc(-c2csc(N3CCC(C(=O)O)CC3)n2)c1OCc1ccc(C(=O)N2CCCC2)cc1C#N endpoint=solubility test_result=25
compound="Cc1cc(C(=O)N2CCCCC2)ccc1COc1ccc(Cl)cc1-c1csc(N2CCC(C(=O)O)CC2C)n1 (stereo not shown)" endpoint=solubility test_result=0.25
compound=Cc1ccc(OCc2ccc(CN3CCN(C(=O)C4CC4)CC3)cc2C)c(-c2csc(N3CC(CC(=O)O)C3)n2)c1 endpoint=solubility test_result=45

Q) Look at this compound and give its reported solubility. Cc1ccc(OCc2ccc(C(=O)N3CCCCC3)cc2C)c(-c2csc([C@H]3CC[C@@H](C(=O)O)CC3)n2)c1
A) 0.15
